Biological target: T1, NT-3 (neurotrophin-3) (Homo sapiens, UniProt P20783 P20783:139-257)
T1 sequence: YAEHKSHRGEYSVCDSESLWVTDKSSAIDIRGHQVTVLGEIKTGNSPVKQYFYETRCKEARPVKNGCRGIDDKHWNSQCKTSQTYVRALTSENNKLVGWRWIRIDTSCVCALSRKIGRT
Experiment: cell_activity; TF-1 TrkC/p75 cells
Conditions: tags: R&D Systems; chain copies: 2
measured_metric: IC50

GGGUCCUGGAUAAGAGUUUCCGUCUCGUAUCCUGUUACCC (ssRNA, 2'-F C5,U7,U17,U18,U19,C20,C24,U25,U33,U36; 2'-OH G8,G34; 2'-H A; 2'-OMe all other; idT 5' and 3') [SEQ ID NO: 82(25)]: 0.00215 µM
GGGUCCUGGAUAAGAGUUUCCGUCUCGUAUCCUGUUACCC (ssRNA, 2'-F C and U except U4; 2'-OMe G1-3,U4,G9,G14,G16,G22,G27; 2'-OH G8,G34; 2'-H A; idT 5' and 3') [SEQ ID NO: 82(2)]: 0.0406 µM
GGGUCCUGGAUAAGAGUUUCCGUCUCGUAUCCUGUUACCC (ssRNA, 2'-F C5,U7,U17,U18,U19,C20,C24,U25,U33,U36; 2'-OH G8,G34; 2'-H A; 2'-OMe all other; 5' PEG80TS4; 3' idT) [SEQ ID NO: 82(55)]: 0.00097 µM

Q: # input binder: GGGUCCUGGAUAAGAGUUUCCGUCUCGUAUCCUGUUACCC (ssRNA, 2'-F C and U except C38; 2'-OMe G1-3,G9,G14,G16,G22,G27,C38; 2'-OH G8,G34; 2'-H A; idT 5' and 3') [SEQ ID NO: 82(16)] ; wanted: its IC50
Result: 0.0344 µM

meta.source: patent US20140235701
